Test system: SK-OV-3 ovarian
Experiment: NCI-60 one-dose screen, 48 h (100 = growth as untreated, 0 = no growth, -100 = all killed)
Settings: 10 µM unless noted
Compounds without any hit were thinned out: in the full panel of roughly 83,000, 20% have a hit. Active and inactive are the calls of the source. The calls were made as follows: active = growth percent below 10; inactive = the rest.
OUTCOME_MEASURE: growth

>>> value_observed("COc1cc(C(=O)/C=C/c2cccc(Nc3ccnc4cc(Cl)ccc34)c2)cc(OC)c1OC")
"20.3% (inactive)"
>>> value_observed("Cc1cn(C(C=O)OC(C=O)CO)c(=O)[nH]c1=O (stereo unspecified)")
"103% (inactive)"
>>> value_observed("O=C(c1ccccc1)C(CN1CCCCC1)c1ccccc1 (stereo unspecified)")
"107% (inactive)"
>>> value_observed("CCOC1Oc2ccccc2C(=O)/C1=N/c1nccs1 (stereo unspecified)")
"97.7% (inactive)"
>>> value_observed("Cc1ccc(C2=NNC(c3sc(Cl)nc3Cl)C2)cc1 (stereo unspecified)")
"88.4% (inactive)"

// switching to the query compound
Recorded result, `Cc1ccccc1NC(=O)N/C(N)=N/c1nc2ccccc2s1` , growth: 65% (inactive)

###

System: UACC-62 melanoma
Assay: NCI-60 one-dose screen, 48 h (100 = growth as untreated, 0 = no growth, -100 = all killed)
Conditions: 10 µM unless noted
This is part of a sample that, as a whole, favours compounds with a hit. Of some 83,000 tested, about 20% had one in any assay. Active and inactive are the calls of the source. The calls were made as follows: active = growth percent below 10; inactive = the rest.
Below is a list of entries, each paired with its recorded growth value.

Example entries begin here.
>>> value_observed("CC12CCC3C(=CCc4cc(O)ccc43)C1CCC2=O (stereo not given)")
"88.9% (inactive)"
>>> value_observed("Nc1nc2c(c(=O)[nH]1)C1(C(=O)Nc3ccccc31)c1c(nc(N)[nH]c1=O)N2")
"103% (inactive)"
>>> value_observed("O=C1c2cccc(NCCN=Cc3ccccc3O)c2C(=O)c2c(NCCN=Cc3ccccc3O)cccc21")
"81.5% (inactive)"
>>> value_observed("CC1Cc2ccccc2N1C(=O)c1ccc(C(=O)c2ccccc2)cc1 (stereo not given)")
"73.6% (inactive)"
>>> value_observed("COCCCNS(=O)(=O)c1ncnc2nc[nH]c12")
"112% (inactive)"
>>> value_observed("CCOc1cc(CCNS(=O)(=O)c2ccc(C)cc2)c(C(C)=O)cc1OCC")
"59% [100 µM] (inactive)"

Now consider the entry below.
Value of measured growth for the entry `COc1ccc(NS(=O)(=O)N2CCCCC2)cc1` : 82.5% (inactive)

###

Tested on: SNB-19 CNS
Assay: NCI-60 one-dose screen, 48 h (100 = growth as untreated, 0 = no growth, -100 = all killed)
Settings: 10 µM unless noted
About 83,000 compounds went through this panel and 20% of them were active in at least one assay; those are over-represented in the sample as a whole.
We begin with a simple list: items and their reported growth.
Use % as the unit, but write only the number.

Guide cases for growth, answers given:
>>> value_observed("NS(=O)(=O)c1ccc(N2CC(c3nc4ccccc4[nH]3)CC2=O)cc1 (stereo not given)")
101
>>> value_observed("CCCn1c(N)c(C(=O)CNc2ccc(I)cc2)c(=O)[nH]c1=O")
88.7
>>> value_observed("O=C1c2cccc(NCCN=Cc3ccccc3O)c2C(=O)c2c(NCCN=Cc3ccccc3O)cccc21")
14.3
>>> value_observed("COc1ccc([N+](=O)[O-])c(S(=O)(=O)c2ccc(Cl)cc2)n1")
92
>>> value_observed("O=C(NCCCl)NCCN1c2nc3ccccc3cc2Sc2cc3ccccc3nc21")
63.9

Observed growth, SNB-19 CNS, `O=C(NN1C(=O)c2cc(C(=O)O)c(C(=O)O)cc2C1=O)c1ccncc1` : 106

Form: item `COc1ccc(NC(=O)[C@@H]2C[C@H]2c2ccccc2)c(C(N)=O)c1` ; test system SNB-19 CNS; growth: 96.3

Tested on SNB-19 CNS, the item `O=C(Nc1ccccc1)c1cc(-n2cnc([N+](=O)[O-])c2)cc(-n2cnc([N+](=O)[O-])c2)n1` showed growth equal to 106

growth on SNB-19 CNS for `CSc1nc(N)c2c(n1)N(C)C=NS2(=O)=O` is 107

Form: item `Cn1cnc([N+](=O)[O-])c1Sc1nc(N)nc2nc[nH]c12` ; test system SNB-19 CNS; growth: 101

###

Tested on: NCI-H322M lung
Test: NCI-60 one-dose screen, 48 h
Settings: 10 µM unless noted
Compounds without any hit were thinned out: in the full panel of roughly 83,000, 20% have a hit. Active and inactive are the calls of the source. How the source made its calls: active means growth percent below 10; inactive means the rest.
The reply should name one outcome from 1.0 = active, 0.0 = inactive

Illustrative cases are given below, each with its answer.
>>> assigned_class("N#Cc1ccc(-c2csc(Nc3ccc4nc5n(c(=O)c4c3)CCC5)n2)cc1")
0.0
>>> assigned_class("NS(=O)(=O)N(c1cc(C(F)(F)F)cc(C(F)(F)F)c1)C1CCN(Cc2ccc(C(F)(F)F)cc2)CC1")
0.0
>>> assigned_class("CCCCNCCCN(CCCC)CCCNCCCC")
0.0
>>> assigned_class("CC[C@@H](C)/C=C(C)/C=C/C(=O)c1c(O)c(-c2ccc(O)cc2)cn(OC2CC(=O)CCC(C)OC(=O)CC2O)c1=O (some centres undefined)")
1.0
>>> assigned_class("Cc1ccc2nc3c(n2c1)C(=O)C(=O)c1ccccc1-3")
1.0
>>> assigned_class("CCN(CC)CCNCC(=O)Oc1ccc(/C=C/C(=O)CC(=O)/C=C/c2ccc(OC(=O)CNCCN(CC)CC)c(OC)c2)cc1OC")
0.0

Name the outcome recorded for `COc1cnc2c(c1)C(=O)c1c-2n(CCCNC(C)C)c(=O)c2cc(F)ccc12` in the assay.
1.0

Identify the outcome logged in this assay for the compound shown: `COc1cc(/C=C2\SC(N3CCCCC3)=NC2=O)ccc1OCCCCCCOc1ccc(/C=C2\SC(N3CCCCC3)=NC2=O)cc1OC`
0.0

So what was the verdict on `O=C(/C=C/c1ccc([N+](=O)[O-])cc1)c1ccc2c3c(cccc13)CC2` in this test?
0.0

###

Listed compounds paired with reported growth
System: HCC-2998 colon
Assay: NCI-60 one-dose screen, 48 h (100 = growth as untreated, 0 = no growth, -100 = all killed)
Conditions: 10 µM unless noted
This is part of a sample that, as a whole, favours compounds with a hit. Of some 83,000 tested, about 20% had one in any assay. Active and inactive are the calls of the source. How the source made its calls: active means growth percent below 10; inactive means the rest.

Examples with their reported growth follow.
>>> value_observed("COc1cc(/C=C/c2cc(/C=C/c3ccc(O)c(OC)c3)n(C(=O)c3ccc(Cl)cc3)n2)ccc1O")
"52% (inactive)"
>>> value_observed("Cc1cc(C(=O)Nc2ccc3cc(CN4CCOCC4)ccc3n2)c(C)n1-c1ccccc1")
"50.8% (inactive)"
>>> value_observed("O=C(/C=C/c1ccc(C(F)(F)F)cc1)c1ccc(Nc2nc(NCCO)nc(NCCO)n2)cc1")
"97.4% (inactive)"
>>> value_observed("CC(=O)OC1Oc2cc(C)c(C)cc2-c2oc(=O)c(-c3ccccc3)cc21 (stereo not given)")
"41.4% (inactive)"

Entry `[N-]=[N+]=NCc1ncc(-c2ccc(C(F)(F)F)cc2)c(NC2CCCCCC2)n1` — recorded growth = 85.8% [50 µM] (inactive)

The reported growth of the compound `COc1ccc2c(c1)c(CC(=O)[Se]C)c(C)n2C(=O)c1ccc(Cl)cc1` was 68.8% (inactive)

compound `O=C(COc1ccc(/C=C2\Oc3ccc4ccccc4c3C2=O)cc1)c1ccc(Cl)cc1` , growth observed: 134% (inactive)

get_value(item= `CCOC(=O)/C=C1/SC(=Nc2ccc(C#N)cc2)N(Cc2ccco2)C1=O` , readout=growth) returns 64.7% (inactive)

Record `NS(=O)(=O)c1ccc(-n2ncc3c(SCc4ccccc4)ncnc32)cc1` . Reported growth: 127% (inactive)

Reported growth for `Cc1ccc(C2=Nc3c(ccc4c(C)c(C)c(=O)oc34)OC2)cc1` was 96.1% (inactive)

###

Tested on: NCI-H226 lung
Assay: NCI-60 one-dose screen, 48 h
Conditions: 10 µM unless noted
About 83,000 compounds went through this panel and 20% of them were active in at least one assay; those are over-represented in the sample as a whole. The source made the active and inactive calls. The calls were made as follows: active = growth percent below 10; inactive = the rest.
API: response.call in 1.0 = active, 0.0 = inactive

Reference set, count: 6
>>> assigned_class("O=C(Nc1ccccc1)c1cc(-n2cnc([N+](=O)[O-])c2)cc(-n2cnc([N+](=O)[O-])c2)n1")
0.0
>>> assigned_class("C[C@H]1O[C@@H](O[C@H]2[C@@H](O)C[C@H](O[C@H]3[C@@H](O)C[C@H](O[C@H]4CC[C@]5(C)C6CC[C@]7(C)[C@@H](C8=CC(=O)OC8)CC[C@]7(O)C6CC[C@@H]5C4)O[C@@H]3C)O[C@@H]2C)C[C@H](O)[C@@H]1O (stereo not given in full)")
1.0
>>> assigned_class("c1ccc(COc2ccc(Nc3ncnc4c3cnn4-c3ccccc3)cc2)cc1")
0.0
>>> assigned_class("COc1cc(/C=C/c2cc(/C=C/c3ccc(O)c(OC)c3)n(C(=O)Cc3ccccc3)n2)ccc1O")
0.0
>>> assigned_class("ICCC(c1ccccc1)(c1ccccc1)c1ccccc1")
0.0
>>> assigned_class("COc1ccc(-c2cnc(SCC(=O)Nc3ccc(-c4nc5ccccc5s4)cc3)n2-c2ccc(OC)cc2)cc1")
0.0

Look up the recorded call for CCCCCCC(CC#N)(CCC)CCCC (stereo not given) in this test.
0.0

Call for entry `C=C(CN1CCc2c([nH]c3ccccc23)C1)c1ccc(C(=O)Nc2ccon2)cc1` :
0.0

What did the test return for `O=C1/C(=C/c2ccccc2Cl)CCc2ccccc21` ?
0.0

Please indicate how the test categorized `CCNCCCn1c2c(c3ccc(F)cc3c1=O)C(=O)c1cc(OC)cnc1-2` .
1.0

In this assay, the call recorded for `CC(=O)c1ccccc1NC(=O)C(C)(c1ccccc1)c1ccccc1` was what?
0.0

What did the test return for CN(C)c1ncnc2c1ncn2C1CCCCO1 (stereo not given) ?
0.0

What is the recorded call for this molecule in the test? `Cc1cccc2nnc(-c3ccccc3)n12`
0.0

How was `COC(=O)N/N=C/c1coc2ccc(Cl)cc2c1=O` classified in this test?
0.0

So what was the verdict on `CC(C)OP(=O)(OC(C)C)c1ncc(-c2ccc(C(F)(F)F)cc2)c(NC2CCCCCC2)n1` in this test?
1.0
